B1: library; numbered along this chain (parent)
chain: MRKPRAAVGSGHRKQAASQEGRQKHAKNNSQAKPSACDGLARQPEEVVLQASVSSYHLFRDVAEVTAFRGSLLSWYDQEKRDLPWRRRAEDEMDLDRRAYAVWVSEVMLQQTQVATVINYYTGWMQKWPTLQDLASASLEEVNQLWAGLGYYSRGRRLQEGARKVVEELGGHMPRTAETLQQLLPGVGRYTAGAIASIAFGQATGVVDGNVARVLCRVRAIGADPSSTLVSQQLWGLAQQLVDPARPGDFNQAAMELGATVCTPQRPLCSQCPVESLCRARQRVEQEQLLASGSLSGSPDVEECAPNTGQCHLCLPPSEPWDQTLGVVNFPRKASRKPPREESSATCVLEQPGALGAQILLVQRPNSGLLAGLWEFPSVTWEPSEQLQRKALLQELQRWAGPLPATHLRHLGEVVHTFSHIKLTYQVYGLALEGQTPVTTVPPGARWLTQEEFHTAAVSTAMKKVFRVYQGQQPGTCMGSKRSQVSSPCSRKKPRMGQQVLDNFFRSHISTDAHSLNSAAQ

Variants of: B1
experimental details: 8OG:A repair function score (normalized; synonymous = 0, nonsense = -1) (normalized log-likelihood score); higher = more repair activity (WT-like);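 also: cells sorted at 72 h after reporter transfection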
measurement parameters: with 8OG:A DNA repair reporter (GFP) in HEK-293 MUTYH KO cells
Values of 8OG:A repair function score greater than or equal to -0.2 map to t; values below map to f.

[
  {
    "change": "E256A",
    "class assignment": "f"
  },
  {
    "change": "A220S",
    "class assignment": "f"
  },
  {
    "change": "E106Y",
    "class assignment": "f"
  },
  {
    "change": "L229W",
    "class assignment": "t"
  },
  {
    "change": "R217P",
    "class assignment": "f"
  },
  {
    "change": "A115P",
    "class assignment": "t"
  },
  {
    "change": "D224S",
    "class assignment": "f"
  },
  {
    "change": "T204G",
    "class assignment": "f"
  },
  {
    "change": "G434L",
    "class assignment": "t"
  },
  {
    "change": "P174M",
    "class assignment": "f"
  },
  {
    "change": "R87T",
    "class assignment": "t"
  },
  {
    "change": "A51M",
    "class assignment": "f"
  },
  {
    "change": "Q358G",
    "class assignment": "f"
  },
  {
    "change": "R163G",
    "class assignment": "f"
  },
  {
    "change": "T260L",
    "class assignment": "t"
  },
  {
    "change": "G171K",
    "class assignment": "f"
  },
  {
    "change": "C477A",
    "class assignment": "t"
  },
  {
    "change": "R157N",
    "class assignment": "t"
  },
  {
    "change": "T417Q",
    "class assignment": "t"
  },
  {
    "change": "V379Q",
    "class assignment": "f"
  },
  {
    "change": "Y120A",
    "class assignment": "f"
  },
  {
    "change": "T324A",
    "class assignment": "t"
  },
  {
    "change": "L40Q",
    "class assignment": "t"
  },
  {
    "change": "G309T",
    "class assignment": "t"
  },
  {
    "change": "V165I",
    "class assignment": "t"
  },
  {
    "change": "G188T",
    "class assignment": "f"
  },
  {
    "change": "N307L",
    "class assignment": "t"
  },
  {
    "change": "R219E",
    "class assignment": "f"
  },
  {
    "change": "Q288S",
    "class assignment": "t"
  },
  {
    "change": "S296L",
    "class assignment": "t"
  },
  {
    "change": "S318W",
    "class assignment": "t"
  },
  {
    "change": "L392H",
    "class assignment": "f"
  },
  {
    "change": "A36I",
    "class assignment": "t"
  },
  {
    "change": "P320R",
    "class assignment": "t"
  },
  {
    "change": "R156E",
    "class assignment": "f"
  },
  {
    "change": "T424S",
    "class assignment": "t"
  },
  {
    "change": "T116F",
    "class assignment": "t"
  },
  {
    "change": "N366E",
    "class assignment": "t"
  },
  {
    "change": "E64A",
    "class assignment": "t"
  },
  {
    "change": "Q252N",
    "class assignment": "f"
  },
  {
    "change": "Y100S",
    "class assignment": "f"
  },
  {
    "change": "A196V",
    "class assignment": "f"
  },
  {
    "change": "Y120C",
    "class assignment": "f"
  },
  {
    "change": "L393A",
    "class assignment": "f"
  },
  {
    "change": "Q50I",
    "class assignment": "t"
  },
  {
    "change": "C272H",
    "class assignment": "f"
  }
]
